From: patent US11059825B2

- Tgt: CXCR7 receptor (Homo sapiens (Human), UniProt P25106)
- Sequence (P25106 whole entry): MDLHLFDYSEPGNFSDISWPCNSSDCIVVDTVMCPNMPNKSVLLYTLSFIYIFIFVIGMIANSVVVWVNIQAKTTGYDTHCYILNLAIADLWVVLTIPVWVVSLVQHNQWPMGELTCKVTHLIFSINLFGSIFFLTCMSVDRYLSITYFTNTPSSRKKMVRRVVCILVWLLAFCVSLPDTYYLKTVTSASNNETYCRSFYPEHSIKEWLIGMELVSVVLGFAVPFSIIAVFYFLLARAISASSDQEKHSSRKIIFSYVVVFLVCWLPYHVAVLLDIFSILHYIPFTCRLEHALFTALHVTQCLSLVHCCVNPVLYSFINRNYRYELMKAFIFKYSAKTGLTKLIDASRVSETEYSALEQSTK
- Assay name: Serum Binding Analysis: displacement of 125I SDF-1 from CXCR7 in 100% human serum
- Measurement setup: 100% human serum (human AB serum with 10 mM HEPES), MCF-7 and/or MDA-MB-435S CXCR7 transfected cells, 125I SDF-1, 3 hrs at 4° C.; read-out: Avg Ser IC50
pIC50: −log10 of the molar value.
Quantity: pIC50

Before answering, review these 3 worked examples.
{"Compound": "O=C(N[C@H]1CCN(c2nccn3ccnc23)C1)c1noc(-c2ccccc2)n1 [Compound 1.121]", "pIC50": "≥ 6.30"}
{"Compound": "O=C(N[C@H]1CCN(c2nccn3cccc23)C1)c1ccn(-c2ccc(F)cc2)n1 [Compound 1.128]", "pIC50": "≥ 6.30"}
{"Compound": "O=C(N[C@H]1CCN(c2nccn3cccc23)C1)c1csc(N2CCC(O)CC2)n1 [Compound 1.098]", "pIC50": "≥ 6.30"}

QUERY: Given the entry Cc1ccn2ccnc(N3CC[C@H](NC(=O)c4csc(N5CCC(O)CC5)n4)C3)c12 [Compound 1.097] , report its measured pIC50.
RESULT: ≥ 6.30

QUERY: Record: CN(C)c1cnc(C(=O)N[C@H]2CCN(c3nccn4cccc34)C2)nc1 [Compound 1.049]
RESULT: ≥ 6.30

QUERY: Record: O=C(N[C@@H]1CCN(c2nccn3ccnc23)C1)c1ncn(-c2ccccc2)n1 [Compound 1.027]
RESULT: 5.60 to 6.30

QUERY: Record: O=C(N[C@H]1CCN(c2nccn3cnnc23)C1)c1ncn(-c2ccccc2)n1 [Compound 1.127]
RESULT: 5.60 to 6.30

QUERY: Record: O=C(N[C@H]1CCN(c2nccn3ccnc23)C1)c1csc(N2CCC3(CC3)C(O)C2)n1 (some centres unmarked) [Compound 1.047]
RESULT: 4.82 to 5.60
